Target: BIKE (Homo sapiens, UniProt Q9NSY1)
Sequence (Q9NSY1 whole entry): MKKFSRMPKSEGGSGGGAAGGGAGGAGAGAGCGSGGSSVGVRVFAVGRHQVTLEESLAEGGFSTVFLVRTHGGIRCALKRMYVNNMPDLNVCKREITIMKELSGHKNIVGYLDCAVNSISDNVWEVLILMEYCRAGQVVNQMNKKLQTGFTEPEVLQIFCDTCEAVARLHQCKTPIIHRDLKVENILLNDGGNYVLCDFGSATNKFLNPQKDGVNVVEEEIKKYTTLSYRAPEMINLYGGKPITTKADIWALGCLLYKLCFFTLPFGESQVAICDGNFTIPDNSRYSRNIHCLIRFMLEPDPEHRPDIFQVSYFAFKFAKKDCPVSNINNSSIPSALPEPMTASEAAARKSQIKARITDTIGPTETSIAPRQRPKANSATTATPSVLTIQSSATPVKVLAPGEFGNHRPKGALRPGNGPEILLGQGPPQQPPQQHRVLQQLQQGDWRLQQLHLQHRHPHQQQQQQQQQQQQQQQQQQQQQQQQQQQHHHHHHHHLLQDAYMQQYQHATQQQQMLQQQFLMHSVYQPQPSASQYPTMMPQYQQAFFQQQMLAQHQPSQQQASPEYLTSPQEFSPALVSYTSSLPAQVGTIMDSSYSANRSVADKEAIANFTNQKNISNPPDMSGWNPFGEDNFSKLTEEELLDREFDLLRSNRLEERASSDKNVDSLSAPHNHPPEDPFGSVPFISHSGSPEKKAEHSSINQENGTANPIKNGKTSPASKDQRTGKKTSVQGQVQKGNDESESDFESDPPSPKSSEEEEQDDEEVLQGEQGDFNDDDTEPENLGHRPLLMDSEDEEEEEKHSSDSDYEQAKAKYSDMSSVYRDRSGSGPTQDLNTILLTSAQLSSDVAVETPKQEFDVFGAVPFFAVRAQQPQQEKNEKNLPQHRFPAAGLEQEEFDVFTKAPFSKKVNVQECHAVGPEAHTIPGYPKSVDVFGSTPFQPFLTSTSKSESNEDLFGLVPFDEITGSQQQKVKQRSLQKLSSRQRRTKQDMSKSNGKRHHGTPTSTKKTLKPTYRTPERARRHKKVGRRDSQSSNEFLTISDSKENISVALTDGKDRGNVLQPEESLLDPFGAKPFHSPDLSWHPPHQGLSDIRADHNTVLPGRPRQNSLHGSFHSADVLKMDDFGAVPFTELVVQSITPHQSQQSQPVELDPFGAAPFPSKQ
Experiment: In vitro binding, dissociation constant
Measured attribute: Kd

Query string: Please report the recorded Kd for C=CC(=O)Nc1cccc(-c2snc3cc(-c4ccc(N)c(OC)c4)cnc23)c1 .
Result string: > 15 µM

---

Target: UniProtKB Q2M2I8
Sequence (Q2M2I8 whole entry): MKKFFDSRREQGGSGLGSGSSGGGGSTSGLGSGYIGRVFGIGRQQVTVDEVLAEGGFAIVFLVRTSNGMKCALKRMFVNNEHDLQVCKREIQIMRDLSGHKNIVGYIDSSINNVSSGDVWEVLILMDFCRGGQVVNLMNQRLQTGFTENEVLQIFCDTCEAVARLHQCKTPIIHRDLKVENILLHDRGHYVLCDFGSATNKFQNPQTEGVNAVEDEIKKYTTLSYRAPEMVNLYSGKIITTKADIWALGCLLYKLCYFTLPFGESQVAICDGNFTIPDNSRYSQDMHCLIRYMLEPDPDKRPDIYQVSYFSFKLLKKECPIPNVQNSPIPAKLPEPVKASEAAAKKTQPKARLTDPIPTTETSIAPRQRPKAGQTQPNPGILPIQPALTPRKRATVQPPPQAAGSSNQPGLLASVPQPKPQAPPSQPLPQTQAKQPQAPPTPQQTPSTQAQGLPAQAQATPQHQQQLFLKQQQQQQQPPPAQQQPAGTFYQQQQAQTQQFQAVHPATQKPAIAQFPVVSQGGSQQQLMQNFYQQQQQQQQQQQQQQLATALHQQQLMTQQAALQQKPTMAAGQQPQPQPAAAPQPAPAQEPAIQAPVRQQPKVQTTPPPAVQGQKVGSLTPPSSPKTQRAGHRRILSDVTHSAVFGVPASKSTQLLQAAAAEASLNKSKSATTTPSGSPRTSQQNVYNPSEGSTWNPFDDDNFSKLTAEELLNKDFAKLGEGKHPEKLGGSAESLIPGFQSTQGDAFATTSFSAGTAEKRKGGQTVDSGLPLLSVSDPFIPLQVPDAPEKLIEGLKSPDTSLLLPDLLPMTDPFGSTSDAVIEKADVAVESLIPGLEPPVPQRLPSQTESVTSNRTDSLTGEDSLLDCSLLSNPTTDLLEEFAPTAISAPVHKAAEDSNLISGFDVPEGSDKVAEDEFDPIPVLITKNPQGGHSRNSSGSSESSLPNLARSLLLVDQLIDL
Measured attribute: Kd (µM)
Note: unit µM is implicit; provide only the numeric part.

Query string: Reported Kd for UniProtKB Q2M2I8, given C=CC(=O)Nc1cccc(-c2snc3cc(-c4ccc(N)c(OC)c4)cnc23)c1 ?
Result string: 4.1
